TARGET DESC: Adenosine receptor A2b (Homo sapiens) (UniProt P29275)
Sequence (P29275 whole entry): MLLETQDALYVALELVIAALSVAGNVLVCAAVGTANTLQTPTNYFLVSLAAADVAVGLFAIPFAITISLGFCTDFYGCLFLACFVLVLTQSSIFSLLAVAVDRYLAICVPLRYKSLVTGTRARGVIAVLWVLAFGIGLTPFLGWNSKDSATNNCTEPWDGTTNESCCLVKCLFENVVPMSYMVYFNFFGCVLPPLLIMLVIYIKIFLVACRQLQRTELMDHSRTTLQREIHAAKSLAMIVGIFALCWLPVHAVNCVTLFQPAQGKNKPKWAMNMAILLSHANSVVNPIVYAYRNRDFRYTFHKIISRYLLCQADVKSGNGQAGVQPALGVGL
EXPERIMENT: Agonist activity at human A2B expressed in CHO cells assessed as stimulation of cAMP production at 1 uM by alphascreen assay relative to NECA
Type: functional, cell-based
METRIC: Efficacy (%)

Below, 5 compounds whose answers are already recorded.
Requested read-out: Efficacy. Entry: N#Cc1c(N)nc(SCC(=O)c2ccccc2)c(C#N)c1-c1ccco1
1

Item under review: N#Cc1c(N)nc(SCc2ccncc2)c(C#N)c1-c1ccco1 . Reported Efficacy?
14

I am curious: what Efficacy value has been reported for N#Cc1c(N)nc(SCC(N)=O)c(C#N)c1-c1ccco1 ?
17

Name the reported Efficacy value associated with the compound N#Cc1c(N)nc(SCCO)c(C#N)c1-c1cccnc1
18

Would you kindly share the measured Efficacy for N#Cc1c(N)nc(NCCO)c(C#N)c1-c1cccs1 ?
1

(P) COC(=O)CSc1nc(N)c(C#N)c(-c2ccco2)c1C#N
(Q) N#Cc1c(N)nc(SCc2cccc(C(N)=O)c2)c(C#N)c1-c1ccco1
(R) N#Cc1c(NC2CCCC2)nc(SCCO)c(C#N)c1-c1ccco1
(S) COC(=O)c1cccc(CSc2nc(N)c(C#N)c(-c3cccnc3)c2C#N)c1
Task for the reader: rank each entry by its Efficacy, from the minimum upward. Order the labels as requested and give them as your answer.
R, P, Q, S
(R: 1%, P: 4%, Q: 6%, S: 15%)

(a) N#Cc1c(N)nc(NCCO)c(C#N)c1-c1cccnc1
(b) COC(=O)c1cccc(CSc2nc(N)c(C#N)c(-c3ccco3)c2C#N)c1
Compare the recorded Efficacy of a and b ; state which is larger. // caller expects the label of the chosen entry
b

* * *

pKi: −log10 of the molar value.
# Adenosine receptor A2a (Homo sapiens): pKi values follow
# Sequence (P29274 whole entry): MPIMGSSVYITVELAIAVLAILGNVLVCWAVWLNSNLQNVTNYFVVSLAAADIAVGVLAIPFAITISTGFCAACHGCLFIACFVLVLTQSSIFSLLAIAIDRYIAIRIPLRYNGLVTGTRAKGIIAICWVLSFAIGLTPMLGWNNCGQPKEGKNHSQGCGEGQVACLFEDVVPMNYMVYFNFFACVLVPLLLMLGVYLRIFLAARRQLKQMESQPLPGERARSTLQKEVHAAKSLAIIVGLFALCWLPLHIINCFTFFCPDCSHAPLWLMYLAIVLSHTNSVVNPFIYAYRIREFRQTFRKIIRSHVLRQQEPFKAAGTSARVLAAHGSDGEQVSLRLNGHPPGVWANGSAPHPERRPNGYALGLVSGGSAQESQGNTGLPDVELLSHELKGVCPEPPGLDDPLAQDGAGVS
METRIC: pKi

Requested read-out: pKi. Entry: N#Cc1c(N)nc(SCC(=O)c2ccccc2)c(C#N)c1-c1ccco1
6.65

(a) N#Cc1c(NCc2ccccc2)nc(SCCO)c(C#N)c1-c1ccco1
(b) N#Cc1c(N)nc(SCc2cccnc2)c(C#N)c1-c1ccco1
(c) COC(=O)c1cccc(CSc2nc(N)c(C#N)c(-c3ccoc3)c2C#N)c1
// ranking: key=pKi, reverse=True List the labels in the requested order.
b, c, a
(b: 7.62, c: 7.02, a: 6.34)

(A) N#Cc1c(N)nc(SCc2cccc(C(=O)O)c2)c(C#N)c1-c1ccco1
(B) N#Cc1c(N)nc(SCc2cccc(C(N)=O)c2)c(C#N)c1-c1ccco1
Field: entry with larger pKi (options A / B ). Write down the label of the entry you select.
B

(P) COC(=O)c1cccc(CSc2nc(N)c(C#N)c(-c3cccs3)c2C#N)c1
(Q) N#Cc1c(N)nc(SCc2ccncc2)c(C#N)c1-c1ccco1
Kindly compare P with Q and tell me which has the lower pKi figure. Lab note: record the label of whichever item you select.
P

* * *

TARGET DESC: Adenosine receptor A3 (Homo sapiens)
EXPERIMENT: Displacement of [125I]ABMECA from human A3R expressed in CHO cell membranes at 1 uM measured after 120 mins by scintillation counting method relative to control
METRIC: inhibition (%)

Consider the worked cases shown below.
For the record N#Cc1c(N)nc(SCCO)c(C#N)c1-c1cccnc1 , what value of inhibition is listed for Adenosine receptor A3 (Homo sapiens)?
22

Could you share what inhibition was measured for N#Cc1c(N)nc(SCc2cccc(CO)c2)c(C#N)c1-c1ccco1 , tested on Adenosine receptor A3 (Homo sapiens)?
25

Write down the reported inhibition of N#Cc1c(N)nc(SCCO)c(C#N)c1-c1ccsc1 , test system: Adenosine receptor A3 (Homo sapiens).
33

(I) COC(=O)c1cccc(CSc2nc(N)c(C#N)c(-c3ccoc3)c2C#N)c1
(II) N#Cc1c(N)nc(SCCO)c(C#N)c1-c1ccoc1
(III) COC(=O)c1ccc(CSc2nc(N)c(C#N)c(-c3ccco3)c2C#N)o1
Arrange by inhibition, high to low. Please list the labels in the order you were asked to rank them.
II, III, I
(II: 34%, III: 11%, I: 1%)
